Listing of entries alongside the reported pKd.
Target: CD206 CRD4 (Homo sapiens, UniProt P22897)
Sequence (P22897 655-778 limits assumed): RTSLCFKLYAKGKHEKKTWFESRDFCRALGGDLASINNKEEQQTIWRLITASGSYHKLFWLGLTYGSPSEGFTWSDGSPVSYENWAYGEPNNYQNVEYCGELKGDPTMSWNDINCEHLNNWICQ
# log scale: pKd equals minus log10 of the concentration in mol/L

compound	reported-endpoint	recorded-result
[N-]=[N+]=NCCOCCOCCOCCn1cc(CO[C@H]2O[C@H](CO)[C@@H](O)[C@H](O)[C@@H]2O)nn1 [ManN3]	pKd	2.89

Here is the next item to consider.
Q) State, in one line, measured pKd of [N-]=[N+]=NCCOCCOCCOCCC(=O)NC(COCCC(=O)NCCOCCOCCOCCn1cc(CO[C@H]2O[C@H](CO)[C@@H](O)[C@H](O)[C@@H]2O)nn1)(COCCC(=O)NCCOCCOCCOCCn1cc(CO[C@H]2O[C@H](CO)[C@@H](O)[C@H](O)[C@@H]2O)nn1)COCCC(=O)NCCOCCOCCOCCn1cc(CO[C@H]2O[C@H](CO)[C@@H](O)[C@H](O)[C@@H]2O)nn1 [(Man)3N3]
A) 2.17

The reported numbers originate from paper PMC12606641.
